# System: Hs578T complex spheroid growth, percent test/control
# test details: Anticancer human tumor Hs578T cell line growth inhibition [AhR]
# setup conditions: curve of first compound; second compound 0.1 µM
observed property: IC50

Any idea what its IC50 is? The compound is CCN(c1cc(-c2ccc(CN3CCOCC3)cc2)cc(C(=O)NCc2c(C)cc(C)[nH]c2=O)c1C)C1CCOCC1 + CC(CO)NC(=O)c1cc(-c2ccc(Cl)cc2)nn(-c2cnn(C)c2)c1=O
> 3000 nM

# lookup: IC50 of CCN(c1cc(-c2ccc(CN3CCOCC3)cc2)cc(C(=O)NCc2c(C)cc(C)[nH]c2=O)c1C)C1CCOCC1 + Cc1ccccc1N=Nc1ccc(NC(=O)c2ccnn2C)c(C)c1
> 3000 nM

IC50 for Nc1ccccc1NC(=O)c1ccc(CNC(=O)OCc2cccnc2)cc1 + Cc1ccccc1N=Nc1ccc(NC(=O)c2ccnn2C)c(C)c1 ?
1320 nM

Consider the compound Nc1ncn(C2CC(O)C(CO)S2)c(=O)n1 (stereo unspecified) + CC(CO)NC(=O)c1cc(-c2ccc(Cl)cc2)nn(-c2cnn(C)c2)c1=O and give its measured IC50.
> 300 nM

Return reported IC50; argument: Nc1ncn(C2CC(O)C(CO)S2)c(=O)n1 (stereo unspecified) + Cc1ccccc1N=Nc1ccc(NC(=O)c2ccnn2C)c(C)c1
> 300 nM

Reported IC50, compound Nc1ccn(C2OC(CO)C(O)C2(F)F)c(=O)n1 (stereo unspecified) + Cc1ccccc1N=Nc1ccc(NC(=O)c2ccnn2C)c(C)c1 : ____
4310 nM

###

# Test system: Hs578T complex spheroid growth, percent test/control
# test details: Anticancer human tumor Hs578T cell line growth inhibition [AhR]
# setup conditions: second compound 0.316 µM; first compound 0.0316 µM; stronger effect = lower value
# Excerpt: Multicellular complex tumor spheroid response to aryl hydrocarbon receptor antagonists in combination with a variety of drugs and investigational agents in selected tumor cell lines […] Compounds. […] If the clinical Cmax for an agent had not been determined, the highest concentration tested was 10 microM (Table 1). […]
Hi there, I'd appreciate the recorded viability, T/C for every entry that follows.
Express the result in % but write the number alone.

Please report the recorded viability, T/C for CC[C@@]1(O)C(=O)OCc2c1cc1n(c2=O)Cc2cc3c(CN(C)C)c(O)ccc3nc2-1 + Cc1ccccc1N=Nc1ccc(NC(=O)c2ccnn2C)c(C)c1 .
78.3

I have this compound here, Nc1ccn(C2OC(CO)C(O)C2(F)F)c(=O)n1 (stereo unspecified) + CC(CO)NC(=O)c1cc(-c2ccc(Cl)cc2)nn(-c2cnn(C)c2)c1=O , and I need its recorded viability, T/C.
60.3

Given the entry Cn1ncnc1C1c2n[nH]c(=O)c3cc(F)cc(c23)NC1c1ccc(F)cc1 (stereo unspecified) + Cc1cncc(-c2nc(NCCc3c[nH]c4ccccc34)c3ncn(C(C)C)c3n2)c1 , report its measured viability, T/C.
97.4

Which viability, T/C is reported for this compound? COc1ccc([C@@H](O)c2cc(-c3ncnc4cc(N5CCOCC5)ccc34)c(F)cc2Cl)nn1 + CC(CO)NC(=O)c1cc(-c2ccc(Cl)cc2)nn(-c2cnn(C)c2)c1=O
113

Requested read-out: viability, T/C. Entry: COc1cccc2c1C(=O)c1c(O)c3c(c(O)c1C2=O)CC(O)(C(=O)CO)CC3OC1CC(N)C(O)C(C)O1 (stereo unspecified) + Cc1cncc(-c2nc(NCCc3c[nH]c4ccccc34)c3ncn(C(C)C)c3n2)c1
97.1

What value of viability, T/C has been reported for the following compound? CC1COCCN1c1cc(-c2ccnn2C)c2ccnc(-c3ccn[nH]3)c2n1 (stereo unspecified) + CC(CO)NC(=O)c1cc(-c2ccc(Cl)cc2)nn(-c2cnn(C)c2)c1=O
112

###

# Tested on: Hs578T complex spheroid growth, percent test/control
# test details: Anticancer human tumor Hs578T cell line growth inhibition [AhR]; active means viability on the fitted dose curve at most 10% of control; inactive means the rest;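 further: luminescent viability signal as a proxy for spheroid growth; spheroids exposed to agents for one week after three days of growth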
# setup conditions: second compound 0.1 µM; first compound 3.16 µM
# Source text: Multicellular complex tumor spheroid response to aryl hydrocarbon receptor antagonists in combination with a variety of drugs and investigational agents in selected tumor cell lines […] Compounds. […] If the clinical Cmax for an agent had not been determined, the highest concentration tested was 10 microM (Table 1). […]
Your response should consist of one outcome taken from active, inactive

Could you kindly confirm the outcome this assay logged for COc1cc(C2c3cc4c(cc3C(OC3OC5COC(C)OC5C(O)C3O)C3COC(=O)C23)OCO4)cc(OC)c1O (stereo unspecified) + Cc1ccccc1N=Nc1ccc(NC(=O)c2ccnn2C)c(C)c1 ?
inactive

Test call for this compound, please: COc1ccc([C@@H](O)c2cc(-c3ncnc4cc(N5CCOCC5)ccc34)c(F)cc2Cl)nn1 + Cc1ccccc1N=Nc1ccc(NC(=O)c2ccnn2C)c(C)c1
inactive

Can you look up the reported call for COc1cccc2c1C(=O)c1c(O)c3c(c(O)c1C2=O)CC(O)(C(=O)CO)CC3OC1CC(N)C(O)C(C)O1 (stereo unspecified) + Cc1cncc(-c2nc(NCCc3c[nH]c4ccccc34)c3ncn(C(C)C)c3n2)c1 for me?
active

Dear all, I need the recorded test outcome for Nc1ccn(C2OC(CO)C(O)C2(F)F)c(=O)n1 (stereo unspecified) + Cc1cncc(-c2nc(NCCc3c[nH]c4ccccc34)c3ncn(C(C)C)c3n2)c1 , thank you.
inactive

Each compound tested received a call. Report the one for COc1cc(Nc2ncc3c(n2)-c2ccc(Cl)cc2C(c2c(F)cccc2OC)=NC3)ccc1C(=O)O + CC(CO)NC(=O)c1cc(-c2ccc(Cl)cc2)nn(-c2cnn(C)c2)c1=O .
inactive

Tell me the recorded outcome of this test for CC1COCCN1c1cc(C2(S(C)(=N)=O)CC2)nc(-c2ccnc3[nH]ccc23)n1 (stereo unspecified) + Cc1ccccc1N=Nc1ccc(NC(=O)c2ccnn2C)c(C)c1 .
inactive

###

Field: viability, T/C. Provide a value for each of the compounds that follow.
# System: Hs578T complex spheroid growth, percent test/control
# test details: Anticancer human tumor Hs578T cell line growth inhibition [AhR];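 further: luminescent viability signal as a proxy for spheroid growth; spheroids exposed to agents for one week after three days of growth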
# setup conditions: second compound 3.16 µM; first compound 3 µM; stronger effect = lower value
Just the number in %, nothing appended.

Data request, read-out viability, T/C, for O=C(C=Cn1cnc(-c2cc(C(F)(F)F)cc(C(F)(F)F)c2)n1)NNc1cnccn1 + Cc1cncc(-c2nc(NCCc3c[nH]c4ccccc34)c3ncn(C(C)C)c3n2)c1
14.6

What value of viability, T/C has been reported for the following compound? O=C(C=Cn1cnc(-c2cc(C(F)(F)F)cc(C(F)(F)F)c2)n1)NNc1cnccn1 + CC(CO)NC(=O)c1cc(-c2ccc(Cl)cc2)nn(-c2cnn(C)c2)c1=O
21.9

May I ask what viability, T/C has been recorded for CCN(c1cc(-c2ccc(CN3CCOCC3)cc2)cc(C(=O)NCc2c(C)cc(C)[nH]c2=O)c1C)C1CCOCC1 + CC(CO)NC(=O)c1cc(-c2ccc(Cl)cc2)nn(-c2cnn(C)c2)c1=O ?
106

###

# System: Hs578T complex spheroid growth, percent test/control
# test details: Anticancer human tumor Hs578T cell line growth inhibition [AhR];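 further: luminescent viability signal as a proxy for spheroid growth; spheroids exposed to agents for one week after three days of growth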
# setup conditions: second compound 3.16 µM; first compound 0.01 µM; stronger effect = lower value
Please provide measured viability, T/C for the entries that follow.

What value of viability, T/C has been recorded for this entry: CC1COCCN1c1cc(-c2ccnn2C)c2ccnc(-c3ccn[nH]3)c2n1 (stereo not drawn) + CC(CO)NC(=O)c1cc(-c2ccc(Cl)cc2)nn(-c2cnn(C)c2)c1=O
122%

Which viability, T/C is reported for this compound? CC[C@@]1(O)C(=O)OCc2c1cc1n(c2=O)Cc2cc3c(CN(C)C)c(O)ccc3nc2-1 + Cc1cncc(-c2nc(NCCc3c[nH]c4ccccc34)c3ncn(C(C)C)c3n2)c1
52.4%

Field request: viability, T/C | item: CC1COCCN1c1cc(-c2ccnn2C)c2ccnc(-c3ccn[nH]3)c2n1 (stereo not drawn) + Cc1cncc(-c2nc(NCCc3c[nH]c4ccccc34)c3ncn(C(C)C)c3n2)c1
65%

###

# System: Hs578T complex spheroid growth, percent test/control
# test details: Anticancer human tumor Hs578T cell line growth inhibition [AhR];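 further: luminescent viability signal as a proxy for spheroid growth; spheroids exposed to agents for one week after three days of growth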
# setup conditions: second compound 1 µM; first compound 0.0316 µM; stronger effect = lower value
observed property: viability, T/C (%)
Provide only the numeric value, understood in %.

So what's the measured viability, T/C for this one? COc1cc(Nc2ncc3c(n2)-c2ccc(Cl)cc2C(c2c(F)cccc2OC)=NC3)ccc1C(=O)O + Cc1cncc(-c2nc(NCCc3c[nH]c4ccccc34)c3ncn(C(C)C)c3n2)c1
98.5

Given the entry Nc1ccn(C2OC(CO)C(O)C2(F)F)c(=O)n1 (configuration not stated) + CC(CO)NC(=O)c1cc(-c2ccc(Cl)cc2)nn(-c2cnn(C)c2)c1=O , report its measured viability, T/C.
61.1

Need viability, T/C, item CC1COCCN1c1cc(C2(S(C)(=N)=O)CC2)nc(-c2ccnc3[nH]ccc23)n1 (configuration not stated) + CC(CO)NC(=O)c1cc(-c2ccc(Cl)cc2)nn(-c2cnn(C)c2)c1=O
111

Report viability, T/C for CC(C)c1c(-c2ccccc2)nc2c(C#N)c[nH]n2c1=O + Cc1cncc(-c2nc(NCCc3c[nH]c4ccccc34)c3ncn(C(C)C)c3n2)c1 please.
99.6

Value lookup for viability, T/C; key = NS(=O)(=O)OCC1CC(n2ccc3c(NC4CCc5ccccc54)ncnc32)CC1O (configuration not stated) + Cc1cncc(-c2nc(NCCc3c[nH]c4ccccc34)c3ncn(C(C)C)c3n2)c1
115

Tell me the measured viability, T/C of COc1ccc([C@@H](O)c2cc(-c3ncnc4cc(N5CCOCC5)ccc34)c(F)cc2Cl)nn1 + Cc1cncc(-c2nc(NCCc3c[nH]c4ccccc34)c3ncn(C(C)C)c3n2)c1 , please.
103

Reported viability, T/C for COc1cc(C2c3cc4c(cc3C(OC3OC5COC(C)OC5C(O)C3O)C3COC(=O)C23)OCO4)cc(OC)c1O (configuration not stated) + Cc1cncc(-c2nc(NCCc3c[nH]c4ccccc34)c3ncn(C(C)C)c3n2)c1 : what is it?
96.9

Fill in the blank: the reported viability, T/C of Cn1ncnc1C1c2n[nH]c(=O)c3cc(F)cc(c23)NC1c1ccc(F)cc1 (configuration not stated) + CC(CO)NC(=O)c1cc(-c2ccc(Cl)cc2)nn(-c2cnn(C)c2)c1=O is ____.
117

// returns reported viability, T/C for input CC[C@@]1(O)C(=O)OCc2c1cc1n(c2=O)Cc2cc3c(CN(C)C)c(O)ccc3nc2-1 + Cc1cncc(-c2nc(NCCc3c[nH]c4ccccc34)c3ncn(C(C)C)c3n2)c1
74.6

Request the reported viability, T/C associated with NS(=O)(=O)OCC1CC(n2ccc3c(NC4CCc5ccccc54)ncnc32)CC1O (configuration not stated) + Cc1ccccc1N=Nc1ccc(NC(=O)c2ccnn2C)c(C)c1
97.8

For the molecule shown here, COc1cccc2c1C(=O)c1c(O)c3c(c(O)c1C2=O)CC(O)(C(=O)CO)CC3OC1CC(N)C(O)C(C)O1 (configuration not stated) + Cc1ccccc1N=Nc1ccc(NC(=O)c2ccnn2C)c(C)c1 , give the reported viability, T/C.
80.4

Consider the molecule COc1cccc2c1C(=O)c1c(O)c3c(c(O)c1C2=O)CC(O)(C(=O)CO)CC3OC1CC(N)C(O)C(C)O1 (configuration not stated) + CC(CO)NC(=O)c1cc(-c2ccc(Cl)cc2)nn(-c2cnn(C)c2)c1=O and give its measured viability, T/C.
92
